# PROTOCOL NOTES: melting temperature; melt of duplexes
# PROTOCOL CONDITIONS: sodium 0.0675 M; strand 1 µM
REPORTED PROPERTY: Tm (°C)

• CGACGTGCGGTATGTGCTG+CAGCACATTGTGCACGTCG ((((((((...((((((((+))))))))...)))))))) = 47.2
• CGACGTGCTAAATGTGCTG+CAGCACATGACGCACGTCG ((((((((...((((((((+))))))))...)))))))) = 50.2
• CGACGTGCTTCATGTGCTG+CAGCACATTACGCACGTCG ((((((((.(.((((((((+)))))))).).)))))))) = 47.8
• CGACGTGCGCCATGTGCTG+CAGCACATCGCGCACGTCG ((((((((((.((((((((+)))))))).)))))))))) = 58.3
• CGACGTGCCTTATGTGCTG+CAGCACATTGAGCACGTCG ((((((((...((((((((+))))))))...)))))))) = 49.6
• CGACGTGCATCATGTGCTG+CAGCACATGGAGCACGTCG ((((((((..(((((((((+)))))))))..)))))))) = 55.5
• CGACGTGCGGAATGTGCTG+CAGCACATTACGCACGTCG (((((((((.(((((((((+))))))))).))))))))) = 62
• CGACGTGCAGTATGTGCTG+CAGCACATCCTGCACGTCG ((((((((((.((((((((+)))))))).)))))))))) = 56.3
• CGACGTGCAGTATGTGCTG+CAGCACATTTCGCACGTCG ((((((((...((((((((+))))))))...)))))))) = 49.7
• CGACGTGCTGCATGTGCTG+CAGCACATCGAGCACGTCG (((((((((..((((((((+))))))))..))))))))) = 52.5
• CGACGTGCACCATGTGCTG+CAGCACATCTTGCACGTCG (((((((((..((((((((+))))))))..))))))))) = 45.7
• CGACGTGCACAATGTGCTG+CAGCACATCGCGCACGTCG ((((((((.(.((((((((+)))))))).).)))))))) = 48.5
• CGACGTGCTGAATGTGCTG+CAGCACATAGGGCACGTCG ((((((((...((((((((+))))))))...)))))))) = 50.7
• CGACGTGCGCTATGTGCTG+CAGCACATGTTGCACGTCG ((((((((...((((((((+))))))))...)))))))) = 49.6
• CGACGTGCTGGATGTGCTG+CAGCACATCTAGCACGTCG (((((((((.(((((((((+))))))))).))))))))) = 60
• CGACGTGCCAAATGTGCTG+CAGCACATGAAGCACGTCG ((((((((...((((((((+))))))))...)))))))) = 51.2
• CGACGTGCTTGATGTGCTG+CAGCACATATGGCACGTCG ((((((((...((((((((+))))))))...)))))))) = 51
• CGACGTGCGCGATGTGCTG+CAGCACATTGCGCACGTCG ((((((((((.((((((((+)))))))).)))))))))) = 63.5
• CGACGTGCGCAATGTGCTG+CAGCACATTCGGCACGTCG ((((((((..(((((((((+)))))))))..)))))))) = 52.5
• CGACGTGCACTATGTGCTG+CAGCACATTTAGCACGTCG ((((((((...((((((((+))))))))...)))))))) = 42.7
• CGACGTGCGGAATGTGCTG+CAGCACATGGAGCACGTCG ((((((((...((((((((+))))))))...)))))))) = 62.8
• CGACGTGCGGAATGTGCTG+CAGCACATTCCGCACGTCG (((((((((((((((((((+))))))))))))))))))) = 66.6
• CGACGTGCAACATGTGCTG+CAGCACATATAGCACGTCG ((((((((.(.((((((((+)))))))).).)))))))) = 49.1
• CGACGTGCGACATGTGCTG+CAGCACATTCTGCACGTCG ((((((((...((((((((+))))))))...)))))))) = 51.3
• CGACGTGCACCATGTGCTG+CAGCACATCTCGCACGTCG ((((((((...((((((((+))))))))...)))))))) = 41.8
• CGACGTGCTTTATGTGCTG+CAGCACATCCCGCACGTCG ((((((((...((((((((+))))))))...)))))))) = 46.8
• CGACGTGCAGGATGTGCTG+CAGCACATACAGCACGTCG ((((((((.(.((((((((+)))))))).).)))))))) = 55
• CGACGTGCAGGATGTGCTG+CAGCACATAATGCACGTCG (((((((((..((((((((+))))))))..))))))))) = 55.2
• CGACGTGCCCCATGTGCTG+CAGCACATACAGCACGTCG ((((((((...((((((((+))))))))...)))))))) = 47.1

Origin of values: the array DNA melting data of Ke et al.
